- assay explanation: Therapeutic index, ratio of IC50 for human WI38 cells to IC50 for human PC3 cells
- experimental setup: WI38 cells and PC3 cells
Field: label. Allowed values: fulfilled (selectivity ratio < 2) or not fulfilled (selectivity ratio >= 2).

{"molecule": "C1CSCCN1.S=P(S)(N1CCSCC1)N1CCSCC1", "qualitative label": "fulfilled"}
{"molecule": "C1COCCN1.S=P(S)(N1CCOCC1)N1CCOCC1", "qualitative label": "not fulfilled"}
{"molecule": "C1COCCN1.CCCCOP(=S)(S)c1ccc(OC)cc1 (stereo not given)", "qualitative label": "fulfilled"}
{"molecule": "NCc1ccccc1.S=P(S)(NCc1ccccc1)NCc1ccccc1", "qualitative label": "fulfilled"}
{"molecule": "C1COCCN1.COP(=S)(S)c1ccc(Oc2ccccc2)cc1 (stereo not given)", "qualitative label": "fulfilled"}
{"molecule": "COc1ccc(P(=S)(S)NCc2ccccc2)cc1.NCc1ccccc1 (stereo not given)", "qualitative label": "not fulfilled"}
{"molecule": "NCC1CCCCC1.S=P(S)(NCC1CCCCC1)NCC1CCCCC1", "qualitative label": "fulfilled"}
{"molecule": "C1COCCN1.CC(C)OP(=S)(S)c1ccc(Oc2ccccc2)cc1 (stereo not given)", "qualitative label": "fulfilled"}
{"molecule": "NCc1ccccc1.S=P(S)(NCc1ccccc1)c1ccc(Oc2ccccc2)cc1 (stereo not given)", "qualitative label": "fulfilled"}

---

- assay explanation: Toxicity in human WI38 cells assessed as inhibition of cell proliferation after 4 days by crystal violet assay
quantity: IC50 at 4 days (µM)

{"compound": "S=P1(c2ccccc2)Nc2ccccc2O1 (configuration not stated)", "inequality sign": ">", "recorded value": 50}
{"compound": "C1COCCN1.COP(=S)(S)c1ccc(Oc2ccccc2)cc1 (configuration not stated)", "inequality sign": "=", "recorded value": 347}
{"compound": "C1COCCN1.CC(C)OP(=S)(S)c1ccc(Oc2ccccc2)cc1 (configuration not stated)", "inequality sign": "=", "recorded value": 72.8}
{"compound": "Fc1ccc2c(c1)NP(=S)(c1ccc(Oc3ccccc3)cc1)O2 (configuration not stated)", "inequality sign": "=", "recorded value": 65.6}
{"compound": "COc1ccc(P2(=S)Oc3ccccc3N2C)cc1 (configuration not stated)", "inequality sign": "=", "recorded value": 92.5}
{"compound": "COc1ccc(P2(=S)Nc3ccccc3O2)cc1 (configuration not stated)", "inequality sign": "=", "recorded value": 94.4}
{"compound": "C1COCCN1.COc1ccc(P(=S)(S)OC(C)C)cc1 (configuration not stated)", "inequality sign": ">", "recorded value": 400}
{"compound": "CN1c2ccccc2OP1(=S)c1ccccc1 (configuration not stated)", "inequality sign": "=", "recorded value": 207}
{"compound": "COc1ccc(P2(=S)Nc3cc(F)ccc3O2)cc1 (configuration not stated)", "inequality sign": ">", "recorded value": 200}
{"compound": "NCC1CCCCC1.S=P(S)(NCC1CCCCC1)NCC1CCCCC1", "inequality sign": "=", "recorded value": 287}
{"compound": "NCc1ccccc1.S=P(S)(NCc1ccccc1)NCc1ccccc1", "inequality sign": "=", "recorded value": 266}
{"compound": "COc1ccc(P2(=S)Nc3cc(OC)ccc3O2)cc1 (configuration not stated)", "inequality sign": "=", "recorded value": 115}

---

The following molecules are shown together with reported selectivity ratio values.
- assay explanation: Therapeutic index, ratio of IC50 for human WI38 cells to IC50 for human MCF7 cells
- experimental setup: WI38 cells and MCF7 cells

{"molecule": "C1COCCN1.CCCCOP(=S)(S)c1ccc(OC)cc1 (stereo unspecified)", "selectivity ratio": 1.1}
{"molecule": "COc1ccc(P(=S)(S)NCc2ccccc2)cc1.NCc1ccccc1 (stereo unspecified)", "selectivity ratio": 2.3}
{"molecule": "C1COCCN1.CC(C)OP(=S)(S)c1ccc(Oc2ccccc2)cc1 (stereo unspecified)", "selectivity ratio": 1.4}
{"molecule": "C1COCCN1.COc1ccc(P(=S)(S)OC(C)C)cc1 (stereo unspecified)", "selectivity ratio": 1.5}
{"molecule": "COc1ccc(P2(=S)Nc3ccccc3O2)cc1 (stereo unspecified)", "selectivity ratio": 2.5}
{"molecule": "C1COCCN1.S=P(S)(N1CCOCC1)N1CCOCC1", "selectivity ratio": 2.6}
{"molecule": "CN1c2ccccc2OP1(=S)c1ccccc1 (stereo unspecified)", "selectivity ratio": 2.8}
{"molecule": "Fc1ccc2c(c1)NP(=S)(c1ccc(Oc3ccccc3)cc1)O2 (stereo unspecified)", "selectivity ratio": 1.7}
{"molecule": "NCc1ccccc1.S=P(S)(NCc1ccccc1)NCc1ccccc1", "selectivity ratio": 1.4}
{"molecule": "NCC1CCCCC1.S=P(S)(NCC1CCCCC1)NCC1CCCCC1", "selectivity ratio": 1}
{"molecule": "C1CSCCN1.S=P(S)(N1CCSCC1)N1CCSCC1", "selectivity ratio": 1.5}
{"molecule": "C1COCCN1.S=P(S)(c1ccc(Oc2ccccc2)cc1)N1CCOCC1 (stereo unspecified)", "selectivity ratio": 2}
{"molecule": "COc1ccc(P2(=S)Nc3cc(OC)ccc3O2)cc1 (stereo unspecified)", "selectivity ratio": 2.9}
{"molecule": "NCc1ccccc1.S=P(S)(NCc1ccccc1)c1ccc(Oc2ccccc2)cc1 (stereo unspecified)", "selectivity ratio": 1.5}
{"molecule": "C1COCCN1.COP(=S)(S)c1ccc(Oc2ccccc2)cc1 (stereo unspecified)", "selectivity ratio": 1.9}
{"molecule": "COc1ccc(P2(=S)Oc3ccccc3N2C)cc1 (stereo unspecified)", "selectivity ratio": 2.1}

---

Below is a list of entries, each paired with its recorded Papp at 16 h, 500 µM value.
- assay explanation: Effective permeability of the compound at 500 uM after 16 hrs by PAMPA

{"compound": "C1COCCN1.S=P(S)(c1ccc(Oc2ccccc2)cc1)N1CCOCC1 (stereo unspecified)", "Papp at 16 h, 500 µM": "0.013 ×10⁻⁶ cm/s"}
{"compound": "C1COCCN1.CC(C)OP(=S)(S)c1ccc(Oc2ccccc2)cc1 (stereo unspecified)", "Papp at 16 h, 500 µM": "0.0051 ×10⁻⁶ cm/s"}
{"compound": "NCc1ccccc1.S=P(S)(NCc1ccccc1)c1ccc(Oc2ccccc2)cc1 (stereo unspecified)", "Papp at 16 h, 500 µM": "0.97 ×10⁻⁶ cm/s"}
{"compound": "COc1ccc(P(=S)(S)OCCCN)cc1 (stereo unspecified)", "Papp at 16 h, 500 µM": "0.0027 ×10⁻⁶ cm/s"}
{"compound": "CCNCCOP(=S)(S)c1ccc(OC)cc1 (stereo unspecified)", "Papp at 16 h, 500 µM": "0.0041 ×10⁻⁶ cm/s"}
{"compound": "C1COCCN1.COc1ccc(P(=S)(S)OC)cc1 (stereo unspecified)", "Papp at 16 h, 500 µM": "0.0031 ×10⁻⁶ cm/s"}

---

- Tested on: MDA-MB-231
- assay explanation: cells
- Assay type: functional, cell-based
- experimental setup: Homo sapiens, MDA-MB-231, 72 h
- Description: Cytotoxicity against human MDA-MB-231 cells assessed as inhibition of cell proliferation after 72 hrs by MTS assay
Classify on IC50 using bin 1: < 80 µM; bin 2: ≥ 80 µM and < 100 µM; bin 3: ≥ 100 µM

{"molecule": "C1COCCN1.COc1ccc(P(=S)(S)OC)cc1 (stereo not drawn)", "test target": "MDA-MB-231", "qualitative label": "bin 3"}
{"molecule": "NCc1ccccc1.S=P(S)(NCc1ccccc1)c1ccc(Oc2ccccc2)cc1 (stereo not drawn)", "test target": "MDA-MB-231", "qualitative label": "bin 1"}
{"molecule": "C1COCCN1.CC(C)OP(=S)(S)c1ccc(Oc2ccccc2)cc1 (stereo not drawn)", "test target": "MDA-MB-231", "qualitative label": "bin 2"}
{"molecule": "C1COCCN1.S=P(S)(c1ccc(Oc2ccccc2)cc1)N1CCOCC1 (stereo not drawn)", "test target": "MDA-MB-231", "qualitative label": "bin 2"}
{"molecule": "C1COCCN1.CCCCOP(=S)(S)c1ccc(OC)cc1 (stereo not drawn)", "test target": "MDA-MB-231", "qualitative label": "bin 1"}
{"molecule": "COc1ccc(P(=S)(S)OCCCN)cc1 (stereo not drawn)", "test target": "MDA-MB-231", "qualitative label": "bin 3"}
{"molecule": "NCC1CCCCC1.S=P(S)(NCC1CCCCC1)NCC1CCCCC1", "test target": "MDA-MB-231", "qualitative label": "bin 3"}
{"molecule": "C1COCCN1.S=P(S)(N1CCOCC1)N1CCOCC1", "test target": "MDA-MB-231", "qualitative label": "bin 3"}
{"molecule": "COc1ccc(P(=S)(S)NCc2ccccc2)cc1.NCc1ccccc1 (stereo not drawn)", "test target": "MDA-MB-231", "qualitative label": "bin 1"}
{"molecule": "NCc1ccccc1.S=P(S)(NCc1ccccc1)NCc1ccccc1", "test target": "MDA-MB-231", "qualitative label": "bin 3"}
{"molecule": "C1COCCN1.COc1ccc(P(=S)(S)OC(C)C)cc1 (stereo not drawn)", "test target": "MDA-MB-231", "qualitative label": "bin 2"}
{"molecule": "CCNCCOP(=S)(S)c1ccc(OC)cc1 (stereo not drawn)", "test target": "MDA-MB-231", "qualitative label": "bin 3"}
{"molecule": "C1COCCN1.COP(=S)(S)c1ccc(Oc2ccccc2)cc1 (stereo not drawn)", "test target": "MDA-MB-231", "qualitative label": "bin 2"}
